# TEST METHOD NOTES: physchem
MEASUREMENT KIND: chromatographic logP
Respond numerically, and do not add a unit to the figure.

Example compounds with recorded chromatographic logP:
>>> df
                                   compound      measurement_kind  observed_result
0  CON=C(C1=NOCCO1)c1ccccc1COc1ccn(-c2ccc(C(C)C)cc2)n1 [Example 16]  chromatographic logP             4.08
1  CON=C(C1=NOCCO1)c1ccccc1COc1ccn(-c2ccccc2F)n1 [Example 20]  chromatographic logP             3.19
2  CON=C(C1=NOCCO1)c1ccccc1COc1ccn(-c2c(Cl)cccc2Cl)n1 [Example 17]  chromatographic logP             4.08

Entry CON=C(C1=NOCCO1)c1ccccc1COc1ccn(-c2cccc(Cl)c2Cl)n1 [Example 18] — recorded chromatographic logP = 3.59

Entry CON=C(C1=NOCCO1)c1ccccc1COc1ccn(Cc2ccc(Cl)cc2)n1 [Example 36] — recorded chromatographic logP = 3.19

Entry CON=C(C1=NOCCO1)c1ccccc1COc1ccn(-c2ccccc2Cl)n1 [Example 9] — recorded chromatographic logP = 3.2

* * *

# TEST METHOD NOTES: physchem
MEASUREMENT KIND: chromatographic logP
Respond numerically, and do not add a unit to the figure.

Example compounds with recorded chromatographic logP:
>>> df
                                   compound  observed_result
0   C=CCn1ccc(OCc2ccccc2C(=NOC)C2=NOCCO2)n1             2.61
1  CON=C(C1=NOCCO1)c1ccccc1COc1ccn(-c2ccccc2OC)n1             2.87

Entry CON=C(C1=NOCCO1)c1ccccc1COc1ccn(-c2cccc(Cl)c2)n1 — recorded chromatographic logP = 3.59

Entry CON=C(C1=NOCCO1)c1ccccc1COc1ccn(-c2ccc(C)c(C)c2)n1 — recorded chromatographic logP = 3.68

Entry CON=C(C1=NOCCO1)c1ccccc1COc1ccn(-c2ccc(F)cc2F)n1 — recorded chromatographic logP = 3.28

* * *

# TEST METHOD NOTES: physchem
MEASUREMENT KIND: chromatographic logP
Respond numerically, and do not add a unit to the figure.

Example compounds with recorded chromatographic logP:
>>> print(df.to_string())
                                   compound  observed_result
0  CON=C(C1=NOCCO1)c1ccccc1COc1ccn(-c2ccc(C)cc2C)n1              3.5
1  CON=C(C1=NOCCO1)c1ccccc1COc1ccn(-c2ccc(C)cc2)n1              3.4
2  CCc1ccccc1-n1ccc(OCc2ccccc2C(=NOC)C2=NOCCO2)n1             3.47
3  CON=C(C1=NOCCO1)c1ccccc1COc1ccn(-c2ccc(C#N)cc2)n1             2.89
4  CON=C(C1=NOCCO1)c1ccccc1COc1ccn(-c2ccccc2)n1             3.06
5  CON=C(C1=NOCCO1)c1ccccc1COc1ccn(-c2cc(C)cc(C)c2)n1             3.79

Entry CON=C(C1=NOCCO1)c1ccccc1COc1ccn(-c2c(Cl)cc(Cl)cc2Cl)n1 — recorded chromatographic logP = 3.74

Entry CON=C(C1=NOCCO1)c1ccccc1COc1ccn(-c2ccc(C(C)(C)C)cc2)n1 — recorded chromatographic logP = 4.33

Entry CON=C(C1=NOCCO1)c1ccccc1COc1ccn(-c2ccc(OC)cc2)n1 — recorded chromatographic logP = 3

* * *

# TEST METHOD NOTES: physchem
Reported chromatographic logP is given for each of the following compounds.
Respond numerically, and do not add a unit to the figure.

Entry CON=C(C1=NOCCO1)c1ccccc1COc1ccn(Cc2cccc(C)c2)n1 — recorded chromatographic logP = 3.11

Entry CON=C(C1=NOCCO1)c1ccccc1COc1ccn(-c2cc(C)ccc2C)n1 — recorded chromatographic logP = 3.52

Entry CON=C(C1=NOCCO1)c1ccccc1COc1ccn(-c2ccc(I)cc2)n1 — recorded chromatographic logP = 3.84

Entry CON=C(C1=NOCCO1)c1ccccc1COc1ccn(-c2ccc(F)cc2)n1 — recorded chromatographic logP = 3.15

* * *

# TEST METHOD NOTES: physchem
Reported chromatographic logP is given for each of the following compounds.
Respond numerically, and do not add a unit to the figure.

Example compounds with recorded chromatographic logP:
>>> df
                                   compound  observed_result
0  CON=C(C1=NOCCO1)c1ccccc1COc1ccn(-c2cc(Cl)cc(Cl)c2)n1             4.24
1  CON=C(C1=NOCCO1)c1ccccc1COc1ccn(-c2ccccc2Br)n1             3.21

// next item, chromatographic logP requested
Entry CON=C(C1=NOCCO1)c1ccccc1COc1ccn(-c2cccc(C)c2C)n1 — recorded chromatographic logP = 3.68

* * *

# TEST METHOD NOTES: physchem
Reported chromatographic logP is given for each of the following compounds.
Respond numerically, and do not add a unit to the figure.

>>> print(df.to_string())
                                   compound      measurement_kind  observed_result
0  CON=C(C1=NOCCO1)c1ccccc1COc1ccn(-c2ccc(Cl)cc2Cl)n1  chromatographic logP             3.78

Entry CON=C(C1=NOCCO1)c1ccccc1COc1ccn(-c2ccccc2C)n1 — recorded chromatographic logP = 3.15

Entry CON=C(C1=NOCCO1)c1ccccc1COc1ccn(-c2cc(Cl)ccc2Cl)n1 — recorded chromatographic logP = 3.74

Entry CON=C(C1=NOCCO1)c1ccccc1COc1ccn(CC2CCCCC2)n1 — recorded chromatographic logP = 3.52

* * *

# TEST METHOD NOTES: physchem
MEASUREMENT KIND: chromatographic logP
Respond numerically, and do not add a unit to the figure.

>>> df
                                   compound  observed_result
0  CON=C(C1=NOCCO1)c1ccccc1COc1ccn(-c2ccc(Cl)c(Cl)c2)n1             4.02

// next item, chromatographic logP requested
Entry CON=C(C1=NOCCO1)c1ccccc1COc1ccn(Cc2ccc(C(C)(C)C)cc2)n1 — recorded chromatographic logP = 3.97

* * *

# TEST METHOD NOTES: physchem
Reported chromatographic logP is given for each of the following molecules.

Example molecules with recorded chromatographic logP:
                                   compound  observed_result
0  CON=C(C1=NOCCO1)c1ccccc1COc1ccn(-c2cccc(Br)c2)n1             3.68
1  CON=C(C1=NOCCO1)c1ccccc1COc1ccn(-c2ccc(Br)cc2)n1             3.67
2  CCc1ccc(-n2ccc(OCc3ccccc3C(=NOC)C3=NOCCO3)n2)cc1             3.76
3  CCOc1ccccc1-n1ccc(OCc2ccccc2C(=NOC)C2=NOCCO2)n1             3.43
4  CON=C(C1=NOCCO1)c1ccccc1COc1ccn(-c2cccc(F)c2)n1             3.24
5  CON=C(C1=NOCCO1)c1ccccc1COc1ccn(Cc2ccccc2)n1             2.79

Entry CON=C(C1=NOCCO1)c1ccccc1COc1ccn(-c2cccc3ccccc23)n1 — recorded chromatographic logP = 3.51

Source listed as patent US20030109702A1.
